Molecular target: human p38alfa (SAPKa) enzyme (Homo sapiens, UniProt Q16539)
Construct: purchased University of Dundee
Sequence (Q16539 whole entry): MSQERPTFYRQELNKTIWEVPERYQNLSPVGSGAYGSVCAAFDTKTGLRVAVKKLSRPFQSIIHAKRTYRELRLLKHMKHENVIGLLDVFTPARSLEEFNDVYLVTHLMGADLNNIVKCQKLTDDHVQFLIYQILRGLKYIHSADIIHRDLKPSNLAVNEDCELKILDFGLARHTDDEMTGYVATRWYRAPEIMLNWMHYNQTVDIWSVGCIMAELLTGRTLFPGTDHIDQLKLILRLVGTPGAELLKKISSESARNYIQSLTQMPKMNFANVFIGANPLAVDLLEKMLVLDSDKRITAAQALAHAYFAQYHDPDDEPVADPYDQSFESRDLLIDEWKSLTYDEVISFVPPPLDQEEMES
Assay: p38 enzymatic inhibition assay (FRET, biotinylated ATF2 substrate)
Assay type: biochemical
Details: 1 h pre-incubation; ATF2 0.62 μM, ATP 60 μM; 25° C.; read-out: p38α IC50
endpoint label: pIC50
Give bare numbers, as −log10 of the molar value.

Worked examples, 6 compounds total:
INSERT INTO assay_data (molecule_smiles, tested_target, endpoint_label, number) VALUES
  ('Cc1ccc(C(=O)NC2CC2)cc1-c1ccn2c(-c3ccncc3Cl)nnc2c1', 'human p38alfa (SAPKa) enzyme (Homo sapiens, UniProt Q16539)', 'pIC50', 7.42),
  ('Cc1ccc(C(=O)NC2CC2)cc1-c1ccn2c(C(C)(C)C)nnc2c1', 'human p38alfa (SAPKa) enzyme (Homo sapiens, UniProt Q16539)', 'pIC50', 7.80),
  ('Cc1c(F)cc(C(=O)NC2CC2)cc1-c1ccn2c(C(C)(C)O)nnc2c1', 'human p38alfa (SAPKa) enzyme (Homo sapiens, UniProt Q16539)', 'pIC50', 8.51),
  ('CO[C@@H](C)c1nnc2cc(-c3cc(C(=O)NC4CC4)ccc3C)ccn12', 'human p38alfa (SAPKa) enzyme (Homo sapiens, UniProt Q16539)', 'pIC50', 7.42),
  ('Cc1ccc(C(=O)NC2CC2)cc1-c1ccn2c(-c3ccccc3Cl)nnc2c1', 'human p38alfa (SAPKa) enzyme (Homo sapiens, UniProt Q16539)', 'pIC50', 8.22),
  ('Cc1c(F)cc(C(=O)NC2CC2)cc1-c1cc2nnc(C(C)(C)C)n2cc1F', 'human p38alfa (SAPKa) enzyme (Homo sapiens, UniProt Q16539)', 'pIC50', 8.70);

We now examine a further compound.
Field pIC50 (entry Cc1c(F)cc(C(=O)NC2CC2)cc1-c1c(F)cn2c(C(C)(C)N)nnc2c1F ) reads 7.92
